molecular target: T1, recombinant human HER2 extracellular domain protein (human, UniProt P04626 23-652); assay: BLI, Protein A capture
T1 construct: range 23-652; Range is printed for the immunogen/panning protein; also called ErbB2; recombinant HER2 protein
Measured kon values are reported for all entries that follow.
Numbers only here, please. The scale is M⁻¹ s⁻¹.

Solved entries (count: 3):
binder	unit_abbreviation	kon
Hu2117HK-Mu17 (Fc fusion, name in Kabat numbering, scFv-hIgG1 Fc; not shown: human IgG1 Fc) scFv: EVQLVESGGGLVQPGGSLRLSCAASGFTYSSYGMSWVRQAPGKGLEWVASISGGGSYTKYPDSVKGRFTISRDNSKNTLYLQMNSLRAEDTAVYYCARDYAGFFDVWGQGTLVTVSSGGGGSGGGGSGGGGSDIQMTQSPSSLSASVGDRVTITCRSSQSLVHSIGNTYLHWYQQKPGKAPKLLIYKVSNRFSGVPSRFSGSGSGTDFTLTISSLQPEDFATYFCSQSTHVPYTFGQGTKVEIK	M⁻¹ s⁻¹	49500
Hu2117HK-Mu36 (Fc fusion, name in Kabat numbering, scFv-hIgG1 Fc; not shown: human IgG1 Fc) scFv: EVQLVESGGGLVQPGGSLRLSCAASGFTYSSYGMSWVRQAPGKGLEWVASISGGGSYTKYPDSVKGRFTISRDNSKNTLYLQMNSLRAEDTAVYYCARDYAGFFDVWGQGTLVTVSSGGGGSGGGGSGGGGSDIQMTQSPSSLSASVGDRVTITCRSSQSLVHSNGNTYLHWYQQKPGKAPKLLIYKVSNRFSGVPSRFSGSGSGTDFTLTISSLQPEDFATYFCMQSTHVPYTFGQGTKVEIK	M⁻¹ s⁻¹	63200
Hu2117HK-Mu47 (Fc fusion, name in Kabat numbering, scFv-hIgG1 Fc; not shown: human IgG1 Fc) scFv: EVQLVESGGGLVQPGGSLRLSCAASGFTYSSYGMSWVRQAPGKGLEWVASISGGGSYTKYPDSVKGRFTISRDNSKNTLYLQMNSLRAEDTAVYYCARDYQGFFDVWGQGTLVTVSSGGGGSGGGGSGGGGSDIQMTQSPSSLSASVGDRVTITCRSSQSLVHSNGNTYLHWYQQKPGKAPKLLIYKVSNRFSGVPSRFSGSGSGTDFTLTISSLQPEDFATYFCSQSTHVPYTFGQGTKVEIK	M⁻¹ s⁻¹	54300

QUERY: Return value of kon for input Hu2117HK-Mu25 (Fc fusion, scFv-hIgG1 Fc; not shown: human IgG1 Fc) scFv: EVQLVESGGGLVQPGGSLRLSCAASGFTYSSYGMSWVRQAPGKGLEWVASISGGGSYTKYPDSVKGRFTISRDNSKNTLYLQMNSLRAEDTAVYYCARDYAGFFDVWGQGTLVTVSSGGGGSGGGGSGGGGSDIQMTQSPSSLSASVGDRVTITCRSSQSLVHSNSNTYLHWYQQKPGKAPKLLIYKVSNRFSGVPSRFSGSGSGTDFTLTISSLQPEDFATYFCSQSTHVPYTFGQGTKVEIK , no commentary.
RESULT: 83100

QUERY: Return value of kon for input Hu2117HK-Mu11 (Fc fusion, scFv-hIgG1 Fc; not shown: human IgG1 Fc) scFv: EVQLVESGGGLVQPGGSLRLSCAASGFTYSSYGMSWVRQAPGKGLEWVASISGGGSYTKYPDSVKGRFTISRDNSKNTLYLQMNSLRAEDTAVYYCARDYAGFFDVWGQGTLVTVSSGGGGSGGGGSGGGGSDIQMTQSPSSLSASVGDRVTITCRSSQSLVHSNGNTYLHWYQQKPGKAPKLLIYKVSNRDSGVPSRFSGSGSGTDFTLTISSLQPEDFATYFCSQSTHVPYTFGQGTKVEIK , no commentary.
RESULT: 85400

QUERY: Return value of kon for input Hu2117HK-Mu34 (Fc fusion, scFv-hIgG1 Fc; not shown: human IgG1 Fc) scFv: EVQLVESGGGLVQPGGSLRLSCAASGFTYSSYGMSWVRQAPGKGLEWVASISGGGSYTKYPDSVKGRFTISRDNSKNTLYLQMNSLRAEDTAVYYCARDYAGFFDVWGQGTLVTVSSGGGGSGGGGSGGGGSDIQMTQSPSSLSASVGDRVTITCRSSQSLVHSNGNTYLHWYQQKPGKAPKLLIYKVSNRFSGVPSRFSGSGSGTDFTLTISSLQPEDFATYFCQQSTHVPYTFGQGTKVEIK , no commentary.
RESULT: 93500
